Each entry below lists one item and its recorded melting point value.

- MOLECULE: "CCC1=C(C(=O)NCCCN2CCC(c3ccccc3)(c3ccccc3)CC2)C(c2cccc(OC)c2)C(C(N)=O)=C(C)N1 (stereo not shown)"
  melting point: "120 to 123 °C"
- MOLECULE: "CCOC(=O)C1(c2ccccc2)CCN(CCCNC(=O)C2=C(COCCN)NC(CC)=C(C(N)=O)C2c2ccc([N+](=O)[O-])cc2)CC1 (stereo not shown)"
  melting point: "87 to 89 °C"
- MOLECULE: "CCC1=C(C(=O)NCCCN2CCC(c3ccccc3)(c3ccccc3)CC2)C(c2ccc([N+](=O)[O-])cc2)C(C(=O)NC(C)C)=C(CC)N1 (stereo not shown)"
  melting point: "201 °C (dec.)"

Now for a further molecule.
Input: For COC(=O)C1=C(C)NC(C)=C(C(=O)NCCCN2CCC(c3ccccc3)(c3ccccc3)CC2)C1Cc1ccccc1 (stereo not shown) , what is its reported melting point?
Output: 175 to 177 °C

----------
- TEST TARGET: α1A Human Adrenergic Receptor (Homo sapiens, UniProt P25100)
- Construct: The entire coding region of α1A (1719 bp); expressed in transfected cells
- Sequence (P25100 1-572): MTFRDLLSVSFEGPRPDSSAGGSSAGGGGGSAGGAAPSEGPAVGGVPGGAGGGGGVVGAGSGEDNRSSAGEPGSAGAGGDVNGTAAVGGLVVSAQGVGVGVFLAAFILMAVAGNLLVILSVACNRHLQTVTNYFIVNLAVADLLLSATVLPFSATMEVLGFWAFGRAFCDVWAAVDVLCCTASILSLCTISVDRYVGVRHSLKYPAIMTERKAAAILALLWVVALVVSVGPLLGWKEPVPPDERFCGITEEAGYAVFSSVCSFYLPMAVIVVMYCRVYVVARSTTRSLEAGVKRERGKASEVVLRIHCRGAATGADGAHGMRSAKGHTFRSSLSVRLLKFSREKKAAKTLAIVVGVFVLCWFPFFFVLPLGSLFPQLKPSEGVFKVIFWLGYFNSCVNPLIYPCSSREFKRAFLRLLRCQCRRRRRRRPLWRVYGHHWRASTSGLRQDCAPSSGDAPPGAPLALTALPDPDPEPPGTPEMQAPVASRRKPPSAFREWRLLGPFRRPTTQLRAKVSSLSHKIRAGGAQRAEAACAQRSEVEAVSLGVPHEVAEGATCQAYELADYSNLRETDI
- EXPERIMENT SUMMARY: Radioligand binding, [3H]prazosin, cloned human α1A adrenergic receptor
- CONDITIONS: PKi alpha-1 1a
ATTRIBUTE MEASURED: Ki (µM)
Write the answer as a number in µM, unit excluded.

Field: example entries. Status: answers known.
- COMPOUND: "CC1=C(C(N)=O)C(c2ccc([N+](=O)[O-])cc2)C(C(=O)NCCCN2CCC(c3ccccc3)(c3ccccc3)CC2)=C(COCCN)N1 (stereo not shown)"
  VALUE: 0.776
- COMPOUND: "COC(=O)C1(c2ccccc2)CCN(CCCNC(=O)C2=C(COCCCN)NC(C)=C(C(C)=O)C2c2ccc([N+](=O)[O-])cc2)CC1 (stereo not shown)"
  VALUE: 1.45
- COMPOUND: "CCNC(=O)C1=C(CC)NC(CC)=C(C(=O)NCCCN2CCC(C(=O)OC)(c3ccccc3)CC2)C1c1ccc([N+](=O)[O-])cc1 (stereo not shown)"
  VALUE: 3.02

Let us examine a further case.
Input: Consider the compound shown here: CCC1=C(C(=O)NC)C(c2ccc([N+](=O)[O-])cc2)C(C(=O)NCCCN2CCC(C(=O)OC)(c3ccccc3)CC2)=C(CC)N1 (stereo not shown) What is its recorded Ki?
Output: 4.17
